Molecular target: SARS-CoV-2 Spike protein receptor-binding domain (RBD) (SARS-CoV-2, UniProt P0DTC2 319-527)
Assay: BLI (Octet), IgG1 captured on anti-human Fc sensors, RBD in solution
metricName: pKd
// returns pKd (minus log10 of molar concentration), number only

AB-12 full-length IgG1 (humanized) (antibody, V domains shown) VH: EVQLVQSGAEVKKPGESLKISCKASGYTFTTYWMHWVRQMPGKGLEWMGAIYPGNSDTRYSPSFQGQVTLSVDKSITTAYLQWNSLKASDTAMYFCTREGIPQLLRTLDYWGQGTLVTVSS VL: DIQMTQSPSSLSASVGDRVTITCRASQGISGYLSWLQQKPEKAPKRLIYAASTLQSGVPSRFSGSGSGTDFTLTISSLQPEDFATYYCQQYLSYPWTFGQGTKLEIK : 7.49
AB-11 full-length IgG1 (humanized) (antibody, V domains shown) VH: EVQLVQSGAEVKKSGESLKISCKASGYTFTTYWMHWVRQMPGKGLEWMGAIYPGNSDTQYSPSFQGQVTLSADKSISTAYLQWSSLKASDTAMYFCTREGIPQLLRTLDYWGQGTLVTVSS VL: EIVLTQSPGTLSLSPGERATLSCRASQEISGYLAWLQQKPGQAPRRLIYAASSLATGIPDRFSGSGSGTDFTLTISRLEPEDFAVYYCLQYLSYPWTFGQGTKVEIK : 7.49
AB-5 full-length IgG1 (antibody, V domains shown) VH: EVQLEESGTVLARPGASVKMSCKASGYTFTSYWMHWIKQRPGQGLEWIGAIYPGNGDTNYNQKFKDKAKLTAVKSTSSAYMELSSLTNEDSAVYFCTREGIPQLLNTLDVWGQGTSVTVSS VL: DILMTQSPSSLSASLGERVSLTCRASQEISGYLSWLQEKPDGTIKRLIYAASTLDSGVPKRFSGSRSGSDYSLTISSLESEDFADYYCQQYLSYPWTFGGGTKLEIK : 7.38
AB-1 full-length IgG1 (antibody, V domains shown) VH: EVQLEESGTVLARPGASVKMSCKASGYTFTTYWMHWIKQRPGQGLEWIGAIYPGNSDTQYNQKFKDKAKLTAVKSTSSAYMELSSLTNEDSAVYFCTREGIPQLLRTLDYWGQGTSVTVSS VL: DILMTQSPSSLSASLGERVSLTCRASQEISGYLSWLQEKPDGTIKRLIYAASTLDSGVPKRFSGSRSGSDYSLTISSLESEDFADYYCLQYLSYPWTFGGGTKLEIK : 7.80

Shifting focus to the binder that follows.
I would be grateful if you could share the reported pKd for AB-10 full-length IgG1 (humanized) (antibody, V domains shown) VH: QVQLVQSGAEVKKPGASVKVSCKASGYTFTSYWMHWVRQAPGQGLEWMGAIYPGNGDTNYAQKFQGRVTMTADTSISTAYMELSRLRSDDTAVYYCTREGIPQLLNTLDVWGQGTLVTVSS VL: DIQMTQSPSSLSASVGDRVTITCRASQEISGYLNWYQQKPGKAPKRLIYAASSLQSGVPSRFSGSGSGTDFTLTISSLQPEDFATYYCQQYLSYPWTFGQGTKVEIK .
7.60

Reference source for all entries: patent US12473560
